Value source: patent US20260125457A1

// reported Cytotoxicity EC50, K562 MPL CALRins5 cells per item
# measured on: CALRins5 (mutant calreticulin, 5 base pair insertion, Type 2) expressed with MPL on engineered cancer cells (UniProt P27797)
# Sequence (P27797 other isoform, or with tags, fused parts or gaps mutant limits assumed): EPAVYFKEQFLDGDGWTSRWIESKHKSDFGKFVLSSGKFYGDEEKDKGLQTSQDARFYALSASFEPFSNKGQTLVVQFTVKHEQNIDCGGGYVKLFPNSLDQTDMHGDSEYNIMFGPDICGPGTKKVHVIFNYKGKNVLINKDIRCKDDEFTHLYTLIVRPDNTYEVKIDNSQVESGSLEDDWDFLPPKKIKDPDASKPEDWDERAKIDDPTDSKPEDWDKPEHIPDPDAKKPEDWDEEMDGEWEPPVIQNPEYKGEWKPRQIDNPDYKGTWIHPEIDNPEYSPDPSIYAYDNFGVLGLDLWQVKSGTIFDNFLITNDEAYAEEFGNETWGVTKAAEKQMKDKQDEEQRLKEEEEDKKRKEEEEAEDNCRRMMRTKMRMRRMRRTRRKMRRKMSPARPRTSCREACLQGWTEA
# protocol description: cell-based or functional assay
Write it as a number; the unit ng/mL goes unstated.

Record request: Cytotoxicity EC50, K562 MPL CALRins5 cells value, item CALRB117 (MP1010 Fab x CD3W245-HL-scFv, high affinity) (bispecific antibody, part only; not given: anti-CD3 scFv arm, constant regions, V domains shown, not shown: another chain or arm of the molecule; a dimerising Fc or GST; small tags and cut ends) VH: QSVEESGGRLVTPGTPLTLTCTVSGIDLSNNAISWVRQAPGKGLEYIGVIGNTGDTYYASWAKGRFTISKTSSTTVDLKMTSLTTEDTATYFCVRGPPSYSNSVKNIWGPGTLVTISS VL: DPMLTQTPSSVSAAVGGTVTIGCQSSQSVYDKNWLSWYQQKPGQPPSRLIYDASKLESGVPSRFSGSGSGTQFTLTISGVQSDDVATYYCAGGFTGNVYAFGGGTEVVVK
74.1

// query Cytotoxicity EC50, K562 MPL CALRins5 cells value for entry CALRB76 (MP1007 Fab x CD3W245-LH-scFv, medium affinity) (bispecific antibody, part only; not given: CD3 scFv arm and IgG1 constant regions, V domains shown, not shown: another chain or arm of the molecule; a dimerising Fc or GST; small tags and cut ends) VL: DPMLTQTPSSVSAAVGGTVTIGCQSSQSVYDNNWLSWYQQKPGQPPNRLIYDASKLASGVPSRFSGSGSGTQFTLTISGVKSDDAATYYCAGGYTGNVYSFGGGTMVEIK VH: QQLEESGGRLVAPGTPLRLTCTVSGIDLSNNAVSWVRQAPGKGLEYIGVIGNTGTTYYANWAKGRFTISKTSSTTVDLKMTSLTTDDTATYFCVRGPPSYSNSVRNIWGPGTLVTVSS
107

What value of Cytotoxicity EC50, K562 MPL CALRins5 cells has been reported for the following binder? CALRB81 (MP1018 Fab x CD3W245-LH-scFv, medium affinity) (bispecific antibody, part only; not given: anti-CD3 scFv arm, constant regions, V domains shown, not shown: another chain or arm of the molecule; a dimerising Fc or GST; small tags and cut ends) VL: DVVMTQTPSSVSAAVGGTVTINCQASQSLYNNKNLAWYQQKPGQPPKLLIYYASALASGVSSRFKGSGSGTQFTLTISGVQSDDAATYYCQGEFNCNSADCNSFGGGTEVVVK VH: QSVEESGGRLVTPGTPLTITCTVSGFSLSSYAMSWVRQAPGKGLEWIGVIDSGGTTYYATWAKSRFTISKTTKVALKITSPTTEDTATYFCARESYAGYDGYGHPIPYGMDPWGPGTLVTVSS
50.9
